- System: P. aeruginosa ATCC 27853
- Type: cell-based, Pseudomonas aeruginosa
- condition.set: ATCC 27853
Non-standard residues stand in square brackets, D forms with d. Residues, ends and D or L forms follow the SMILES beside them. Dab = NCC[C@H](N)C(=O)O
readout: MIC P. aeruginosa ATCC 27853 (µg/mL)
The reply should be a number in µg/mL, with the unit left off.

Field MIC P. aeruginosa ATCC 27853 (entry CC[C@H](C)[C@@H]1NC(=O)[C@H](Cc2c[nH]c3ccccc23)NC(=O)[C@H]([C@@H](C)O)NC(=O)[C@@H]2CCCN2C(=O)[C@H]2CCCN2C(=O)[C@H](CCN)NC(=O)[C@H](CCC(N)=O)NC(=O)[C@H](CCN)NC(=O)[C@H](CCN)NC(=O)[C@H](Cc2c[nH]c3ccccc23)NC(=O)[C@H](CCN)NC(=O)[C@H](CCN)NC(=O)[C@H](CCCCN)NC(=O)[C@H](CCN)NC1=O [Example 13] (cyclo(TWI[Dab]K[Dab][Dab]W[Dab][Dab]Q[Dab][dP]P)) ) reads 0.21
